Origin of the recorded values: patent US20150299265A1

- ASSAY_SYSTEM: T1, Recombinant human HER2 ectodomain (human, UniProt P04626 23-652, biotinylated on primary amines (for SPR and crude extract ELISA))
- T1 construct: extracellular domain; also called ErbB2; ectodomain of human HER2; not shown: Flag tag
- RUN_DESCRIPTION: SPR (ProteOn); biotinylated human HER2 on neutravidin chip, monovalent DARPin injected
REPORTED_PROPERTY: Kd (nM)

- BINDER: "DARPin #14 (designed binder, monovalent) MRGSHHHHHHGSDLGAKLLIAATVGQDDEVRILLAAGADVNAKDTIGHTPLHRAAFVGQLEIVEVLLKAGADVNAQDDYGWTPADLAANSGHEDIAEVLQKLN"
  EXPERIMENTAL_RESULT: 1.88
- BINDER: "DARPin #9 (designed binder, monovalent) MRGSHHHHHHGSDLGHKLLEAAVAGQDDEVRILLAAGADVNAKDWYGKTPLHFAAGLGHLEIVEVLLKAGADVNAKDEDGQTPLHLAAAYGHLEIVEVLLKAGADVNAQDNDGFTPADLAADSGHEDIAEVLQKLN"
  EXPERIMENTAL_RESULT: 0.417
- BINDER: "DARPin #16 (designed binder, monovalent) MRGSHHHHHHGSDLGIKLLQAANLGQDDEVRELLKAGADVNAKDSIGQTPLHWAARRGHLEIVEVLLKAGADVNAKDEYGVTPLHLAASLGHLEIVEVLLKAGADVNAQDESGETPADLAALHGHEDIAEVLQKLN"
  EXPERIMENTAL_RESULT: 2.67

I. DARPin #20 (designed binder, monovalent) MRGSHHHHHHGSDLGKKLLEAARAGQDDEVRELLKAGADVNAKDEYGLTPLYLATAHGHLEIVEVLLKAGADVNAVDAIGFTPLHLAAFIGHLEIAEVLLKAGADVNAQDKFGKTPADIAAGAGNEDIAEVLQKLN
II. DARPin #1 (designed binder, monovalent) MRGSHHHHHHGSDLGVKLLWAAARGQDDEVRILLAAGADVNAKDFQGITPLHIAAQSGHLEIVEVLLKAGADVNAKDVTGDTPLHLAAQHGHLVIVEVLLKAGADVNAQDERGWTPADLAADWGHEDIAEVLQKLN
Form: Entry with minimum Kd (choose one): I / II Selection: enter the item's label. II

I. DARPin #51 (designed binder, monovalent) MRGSHHHHHHGSDLGNKLLIAASVGQDDEVRILLAAGADVNAKDETGWTPLHLAAAWGHLEIVEVLLKAGADVNAKDVKGQTPLHLAAAYGHLEIVEVLLKAGADVNAQDNDGYTPADLAARYGHEDIAEVLQKLN
II. DARPin #3 (designed binder, monovalent) MRGSHHHHHHGSDLGIKLLFAAAKSQDDEVRILLAAGADVNAKDFQSVTPLHIAAQSGHLEIVEVLLKAGADVNAKDVTGDTPLHLAAQHGHLEIVEVLLKAGADVNAQDERGWTPADLAADWGHEDIAEVLQKLN
Hi team, can someone confirm which has the larger Kd: I or II ? Thanks. Selection: enter the item's label. I
